- assay_protocol: Solubility of analytes and polymer in solvents, dissolution media and water
- Type: physicochemical
- test_parameters: DMSO, organic solvent or mixture; read-out: Solubility
Form field: solubility (one value per entry).

molecule | value_operator | solubility (mg/mL)
O=C1CCC(N2C(=O)c3ccccc3C2=O)C(=O)N1 (racemic) [THX] | = | 56
CCCCCCNC(=O)n1cc(F)c(=O)[nH]c1=O [HCFU, Carmofur] | > | 50
CCCCCOC(=O)Nc1nc(=O)n([C@@H]2O[C@H](C)[C@@H](O)[C@H]2O)cc1F [CPX, Capecitabine] | > | 50
CC(=O)O[C@H]1C(=O)[C@@]2(C)[C@H]([C@H](OC(=O)c3ccccc3)[C@]3(O)C[C@H](OC(=O)[C@H](O)[C@@H](NC(=O)c4ccccc4)c4ccccc4)C(C)=C1C3(C)C)[C@]1(OC(C)=O)CO[C@@H]1C[C@@H]2O [PTX, Paclitaxel] | = | 27.2
O=c1[nH]cc(F)c(=O)[nH]1 [FLX, 5-fluorouracil] | = | 59

Values were extracted from patent US20140107062A1.
